Each recorded value in this set is attributed to ChEMBL document CHEMBL1201862.

GI50 reference
- System: BT-549
- METHOD_SUMMARY: NCI tumour cell line growth inhibition, 48 h
Active and inactive are the calls of the source. Cut-off read from the data, not from the text of the source: active = GI50 up to about 1.1 µM and inactive = higher.

Some entries whose results are on file:
compound="COC(=O)C(/C(=N/NC(=O)c1ccncc1)C(=O)Nc1ccccc1OC)c1nc2ccc(Cl)cc2nc1O (stereo not given)" observed_value="> 100 µM (inactive)"
compound=CN1N=C(c2ccccc2)c2cc(Cl)ccc2N=C1N/N=C/c1ccc(N(C)C)cc1 observed_value="> 100 µM (inactive)"
compound="CCCCCCCCCCCCCC(=O)OC(/C=C/C(C)C)C(O)C(O)C(OC)C(=O)NC1CCCCNC1=O (stereo not given)" observed_value="> 10 µM (inactive)"

Readout GI50 for CCOP(=O)(OCC)C(c1ccccc1)N(C(=O)NC(F)(F)F)c1ccc(C)cc1 (stereo not given) , test system BT-549, was > 100 µM (inactive)

Reading of GI50 for O=c1[nH]c2ccc(CC(=S)N3CCN(c4ccccc4)CC3)cc2s1 with BT-549: 26.6 µM (inactive)

###

Each item that follows carries a reported GI50.
- Tested on: CAKI-1
- METHOD_SUMMARY: NCI tumour cell line growth inhibition, 48 h
The source made the active and inactive calls. Rule as the data show it: active = GI50 up to about 1.1 µM and inactive = higher.

The following compounds have reported results that may help.
compound="ClCCCCOC1CCCCO1 (configuration not stated)" study_system=CAKI-1 readout_name=GI50 observed_value="> 100 µM (inactive)"
compound=CCOC(=O)c1c2ccccc2n2c(N)c(C(N)=O)nnc12 study_system=CAKI-1 readout_name=GI50 observed_value="32.8 µM (inactive)"
compound=CSc1nc(SC)c2c(C(N)=S)n[nH]c2n1 study_system=CAKI-1 readout_name=GI50 observed_value="21.1 µM (inactive)"
compound=CN1Cc2c(ccc3c2OCO3)[C@@H]2[C@H](O)Cc3cc4c(cc3[C@@H]21)OCO4 study_system=CAKI-1 readout_name=GI50 observed_value="4.89 µM (inactive)"
compound=CN(C)CCCNc1ccnc2c([N+](=O)[O-])cccc12 study_system=CAKI-1 readout_name=GI50 observed_value="35.3 µM (inactive)"

The reported GI50 value, CAKI-1, for ClC1(c2ccccc2)c2ccc(Br)cc2-c2cc(Br)ccc21 reads 14.9 µM (inactive)

Entry CCOC(=O)C(=Cc1cccnc1C)C(=O)OCC , tested on CAKI-1, has a reported GI50 of 6.21 µM (inactive)

Tested on CAKI-1, the item CC12CCC(C1)C(C)(C)C2OC(=O)c1ccccc1C(=O)O (configuration not stated) showed GI50 equal to > 100 µM (inactive)

Note to self: GI50 of C[n+]1c2ccccc2c2/c(=C\C#N)c3ccccc3n21 with CAKI-1 was 23.8 µM (inactive)

Lab entry: CAKI-1 assay, compound O=C1/C(=N\O)S(=O)(=O)c2ccccc21 , GI50 = > 100 µM (inactive)

# CCCCCCCCCCCCOCC1(COCCCCCCCCCCCC)COC(c2ccc(N)cc2)OC1 with CAKI-1: GI50 is > 100 µM (inactive)

Response field GI50 (CAKI-1) for item CC1CC(N)=C(C#N)C1(C#N)C#N (configuration not stated) : 24.3 µM (inactive)

###

- Test system: M14
- METHOD_SUMMARY: NCI tumour cell line growth inhibition, 48 h
Calls of active or inactive are those of the source. Rule as the data show it: active = GI50 up to about 1.1 µM and inactive = higher.
// reported GI50 per item

Below: 4 molecules and their reported GI50.
molecule=CN(C)CCCNc1ccnc2c([N+](=O)[O-])cccc12 readout_name=GI50 observed_value="29.2 µM (inactive)"
molecule="CC1(C)c2ccccc2C(O)C12CCC(=O)CC2 (centres undefined)" readout_name=GI50 observed_value="> 100 µM (inactive)"
molecule=CCCCCCCCCCCCOCC1(COCCCCCCCCCCCC)COC(c2ccc(N)cc2)OC1 readout_name=GI50 observed_value="> 100 µM (inactive)"
molecule="O=C(O)C1CCN(Cc2oc(CO)cc(=O)c2O)C1 (centres undefined)" readout_name=GI50 observed_value="> 100 µM (inactive)"

Given item CC(=O)NC1C(OCc2ccccc2)OC(COC(=O)CCCCCCCCCCNC(=O)c2cccc3c(=O)c4ccccc4[nH]c23)C(O)C1OC(C)C(=O)NC(C)C(=O)NC(CCC(N)=O)C(N)=O (centres undefined) , the value recorded as its GI50 is > 100 µM (inactive)

Measured GI50, O=C(CSc1nnc(-c2ccc(/N=C\c3ccc(Cl)cc3)cc2)o1)Nc1ccc(Cl)cc1 : > 100 µM (inactive)

Measured GI50 of CC1=C/C(=C(/c2ccc(O)c(C)c2)c2ccccc2C(=O)O)C=CC1=O : 18.3 µM (inactive)

Kindly note the recorded GI50 for C[C@@H]1CC[C@@]2(C)[C@H](C)/C(=C\COC(=O)/C=C/c3ccc(O)c(O)c3)CC[C@@]12C [NAVICULYL CAFFEATE] , which is 8.18 µM (inactive)

The molecule listed as COC(=O)c1ccc(-c2nc(C#N)c(N)o2)cc1 has a reported GI50 of > 100 µM (inactive)

###

- Test system: BT-549
- METHOD_SUMMARY: NCI tumour cell line growth inhibition, 48 h
Activity calls are given as the source filed them. Rule as the data show it: active = GI50 up to about 1.1 µM and inactive = higher.
Parameter call: string, one of active, inactive

Worked examples follow.
molecule="N#Cc1ccc(C2Oc3ccc(Cl)cc3C=C2[N+](=O)[O-])cc1 (stereo not given)" study_system=BT-549 label_class=active
molecule=CCOC(=O)c1c2ccccc2n2c(N)c(C(N)=O)nnc12 study_system=BT-549 label_class=inactive
molecule="COc1ccc(C2CC(=O)Oc3ccccc3O2)cc1 (stereo not given)" study_system=BT-549 label_class=inactive
molecule="O=C(NCCC1CN(S(=O)(=O)C(F)(F)F)c2ccccc21)OCc1ccccc1 (stereo not given)" study_system=BT-549 label_class=inactive
molecule=CN1CN(c2ccccc2)C2(CCNCC2)C1=O study_system=BT-549 label_class=inactive

*Q* Short answer needed: outcome of this test for COc1ccc(CCN2COc3ccc4ccc(=O)oc4c3C2)cc1OC ?
*A* inactive

*Q* Kindly provide the recorded test outcome for the following molecule: CC1=C/C(=C(/c2ccc(O)c(C)c2)c2ccccc2C(=O)O)C=CC1=O
*A* inactive

*Q* Could you kindly confirm the outcome this assay logged for CC(C)C(C)/C=C\C(C)C1CCC2C3=CC=C4CC(O)CCC4(C)C3CCC21C (stereo not given) ?
*A* inactive

*Q* // outcome(item) with item = Clc1ccc(-c2ccc(-c3nnc(COc4ccc(OCc5nnc(-c6ccc(-c7ccc(Cl)cc7Cl)o6)o5)c(Cl)c4)o3)o2)c(Cl)c1
*A* inactive

*Q* Lab log entry: CCCCN(CCCC)CC(=O)c1ccc2cc(Cl)c3ccccc3c2c1 — outcome as called in the assay?
*A* inactive

###

- System: SNB-75
- METHOD_SUMMARY: NCI tumour cell line growth inhibition, 48 h
Activity calls are given as the source filed them. Cut-off read from the data, not from the text of the source: active = GI50 up to about 1.1 µM and inactive = higher.
Reply using exactly one outcome from active, inactive

// known answers, use as guide
compound=COc1ccc(-c2nc3ccc([N+](=O)[O-])cc3c(=O)[nH]2)cc1 study_system=SNB-75 label_class=inactive
compound="CC12CCC(C1)C(C)(C)C2OC(=O)c1ccccc1C(=O)O (configuration not stated)" study_system=SNB-75 label_class=inactive
compound=CC(=O)O[C@H]1C(=O)[C@@]2(C)[C@H]([C@H](OC(=O)c3ccc(F)cc3)[C@]3(O)C[C@H](OC(=O)[C@H](O)[C@@H](NC(=O)c4ccccc4)c4ccccc4)C(C)=C1C3(C)C)[C@]1(OC(C)=O)CO[C@@H]1C[C@@H]2O study_system=SNB-75 label_class=active
compound="CC1=C(C(=O)CC(=O)C(=O)NC2C3CC4CC(C3)CC2C4)Sc2ccccc2N1 (configuration not stated)" study_system=SNB-75 label_class=inactive
compound=COc1cc(Nc2nc3ccccc3nc2C(C)C)cc(OC)c1OC study_system=SNB-75 label_class=inactive

*Q* Answer briefly: the call reported for Cc1ccc(-c2cn3c(nc4ccccc43)c(-c3ccccc3)n2)cc1 in this assay.
*A* inactive

*Q* Test call, this compound: COCc1cc2c(cc1/C(=C/[N+](=O)[O-])CS(=O)(=O)c1ccccc1)OCO2
*A* inactive

*Q* Status in this test for CN1Cc2c(ccc3c2OCO3)[C@@H]2[C@H](O)Cc3cc4c(cc3[C@@H]21)OCO4 ?
*A* inactive

*Q* Identify the outcome logged in this assay for the compound shown: O=c1c2c(no[n+]2[O-])c2ccccc2n1-c1ccccc1
*A* inactive

*Q* Record lookup: outcome of this test for CCCCCCCCCCCCOCC1(COCCCCCCCCCCCC)COC(c2ccc(N)cc2)OC1 ?
*A* inactive

*Q* Hey, what did the test say about CC(C(=O)NCNC(=O)c1ccccc1)C(=O)Nc1ccccc1 (configuration not stated) ?
*A* inactive

###

- Test system: OVCAR-8
- METHOD_SUMMARY: NCI tumour cell line growth inhibition, 48 h
Active and inactive are the calls of the source. Rule as the data show it: active = GI50 up to about 1.1 µM and inactive = higher.
Choose the fitting class; nothing outside active, inactive is accepted.

// below: answered molecules
molecule=Cc1ccccc1NC(=O)c1cc2cc(/N=N/c3ccccc3C(=O)O)ccc2oc1=O label_class=inactive
molecule=COc1cc([C@@H]2c3cc4c(cc3[C@@H](Nc3ccc(/N=C\c5ccc(C(=O)O[C@@H](C(=O)O[C@H]6C[C@@]7(O)[C@@H](OC(=O)c8ccccc8)[C@@H]8[C@]9(OC(C)=O)CO[C@@H]9C[C@H](O)[C@@]8(C)C(=O)[C@H](OC(C)=O)C(=C6C)C7(C)C)[C@@H](NC(=O)c6ccccc6)c6ccccc6)cc5)cc3)[C@H]3COC(=O)[C@H]23)OCO4)cc(OC)c1O label_class=inactive
molecule="N=S(=O)(c1ccccc1)c1ccccc1[N+](=O)[O-] (stereo not drawn)" label_class=inactive
molecule=Oc1cc2c3c(c1)c1cc4c(cc1c[n+]3CC2)OCO4 label_class=active
molecule=CCCCCCCCCCCCOCC1(COCCCCCCCCCCCC)COC(c2ccc(N)cc2)OC1 label_class=inactive
molecule=ClC1(c2ccccc2)c2ccc(Br)cc2-c2cc(Br)ccc21 label_class=inactive
molecule=Cc1cc(=O)cc2sc3cc(Cl)ccc3nc1-2 label_class=inactive

Alright, here's another molecule for you.
*Q* Could you check what this test reported for O=c1c(Br)cc2c(-c3ccccc3)c3cc(Br)c(O)c(Br)c3oc-2c1Br ?
*A* inactive
